B1: r11_951_TrROS_Hall (parent)
chain: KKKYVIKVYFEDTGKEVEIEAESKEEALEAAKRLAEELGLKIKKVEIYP

Variants of: B1
measurementDescription: folding stability dG (cDNA display proteolysis); higher = more stable
settings: PBS, room temperature
# reported folding stability dG; entries follow
experimentalReadout: folding stability dG (kcal/mol)

[[record]]
sequenceinput = "KKKYVIKVYFEDTGKEVEIEAESREEALEAAKRLAEELGLKIKKVEIYP [K24R]"
experimentalreadout = "folding stability dG"
measurednumber = 4.3

[[record]]
sequenceinput = "KKKYVIKVYFEDTGKEVEIEAESKEEALEAAKRLAEELVLKIKKVEIYP [G39V]"
experimentalreadout = "folding stability dG"
measurednumber = 4.03

[[record]]
sequenceinput = "KKKYVIKVYFEDTGKEVEIEAESKEEALEAAKRLAENLGLKIKKVEIYP [E37N]"
experimentalreadout = "folding stability dG"
measurednumber = 4.42

[[record]]
sequenceinput = "KKKYVIKVYFEDTGKEVEIEAESKEEALEAAKRRAEELGLKIKKVEIYP [L34R]"
experimentalreadout = "folding stability dG"
measurednumber = 4.32

[[record]]
sequenceinput = "KKKYVIKVYFEDTGKEVEIEAESKEEANEAAKRLAEELGLKIKKVEIYP [L28N]"
experimentalreadout = "folding stability dG"
measurednumber = 4.33

